Known Ki of a selection of molecules
biological target: human bradykinin B2 receptor (Homo sapiens); construct: The HindIII/XbaI fragment of one full-length clone, 126A, was inserted into pcDNAI neo vector; expressed in transfected cells; test: Radioligand binding, H2O.2 cell membranes, 3H-bradykinin; conditions: Table 2, read-out: Radioligand Binding, Ki Human 3HBK
RESULT TYPE: Ki

* N=C(N)NCCC[C@@H](N)C(=O)N[C@@H](CCCNC(=N)N)C(=O)N1CCC2(CC1)C(=O)N(CC(=O)N1CCc3c(c4ccccc4n3CC(=O)N[C@@H](CCCNC(=N)N)C(=O)O)C1)CN2CC1CCCCC1 | 168 nM
* Cc1cc(C)nc(NCCC[C@@H](NC(=O)Cn2c3c(c4ccccc42)CCN(C(=O)CN2CN(c4ccccc4)C4(CCN(C(=O)[C@H](N)CCCNC(=N)N)CC4)C2=O)C3)C(N)=O)n1 | 212 nM
* CCCN1CN(CC(=O)N2CCc3c(c4ccccc4n3CC(=O)N[C@@H](CCCNC(=N)N)C(=O)O)C2)C(=O)C12CCN(C(=O)[C@H](CCCNC(=N)N)NC(=O)[C@H](N)CCCNC(=N)N)CC2 | 473 nM
* N=C(N)NCCC[C@@H](N)C(=O)N[C@@H](CCCNC(=N)N)C(=O)N1CCC2(CC1)C(=O)N(CC(=O)N1CCc3c(c4ccccc4n3CC(=O)N[C@@H](CCCNC(=N)N)C(=O)O)C1)CN2c1ccccc1 | 325 nM

###

target: human bradykinin B2 receptor (Homo sapiens, UniProt P30411); construct: The HindIII/XbaI fragment of one full-length clone, 126A, was inserted into pcDNAI neo vector; expressed in transfected cells; assay: Radioligand binding, H2O.2 cell membranes, 3H-bradykinin; conditions: Table 2, read-out: Radioligand Binding, Ki Human 3HBK
Sequence (P30411 whole entry, the tested form may be a part): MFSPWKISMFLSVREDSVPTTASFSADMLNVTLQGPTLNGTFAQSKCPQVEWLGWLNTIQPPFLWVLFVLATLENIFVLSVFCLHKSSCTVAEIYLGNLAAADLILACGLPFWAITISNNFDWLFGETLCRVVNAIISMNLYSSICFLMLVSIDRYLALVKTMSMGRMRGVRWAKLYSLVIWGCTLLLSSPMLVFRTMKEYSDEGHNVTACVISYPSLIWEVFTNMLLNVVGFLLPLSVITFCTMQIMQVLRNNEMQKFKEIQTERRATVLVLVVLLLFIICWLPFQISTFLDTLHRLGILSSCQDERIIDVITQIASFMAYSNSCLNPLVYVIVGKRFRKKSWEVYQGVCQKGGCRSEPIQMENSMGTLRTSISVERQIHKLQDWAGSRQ
Known Ki of a selection of molecules
RESULT TYPE: Ki (nM)

- Cc1cc(C)nc(NCCC[C@@H](NC(=O)Cn2c3c(c4ccccc42)CCN(C(=O)CN2CN(c4ccccc4)C4(CCN(C(=O)[C@@H](N)CCCNC(=N)N)CC4)C2=O)C3)C(N)=O)n1: 285
- Cc1cc(C)nc(NCCC[C@@H](NC(=O)Cn2c3c(c4ccccc42)CN(C(=O)CN2CN(CC4CCCCC4)C4(CCN(C(=O)[C@H](CCCNC(=N)N)NC(=O)[C@H](N)CCCNC(=N)N)CC4)C2=O)CC3)C(N)=O)n1: 52
- COc1ccc(N2CN(CC(=O)N3CCc4c(c5ccccc5n4CC(=O)N[C@@H](CCCNC(=N)N)C(=O)O)C3)C(=O)C23CCN(C(=O)[C@H](CCCNC(=N)N)NC(=O)[C@H](N)CCCNC(=N)N)CC3)cc1: 129
- N=C(N)NCCC[C@@H](N)C(=O)N[C@@H](CCCNC(=N)N)C(=O)N1CCc2c(n(CCC(=O)N3CCC4(CC3)C(=O)N(CC(=O)N[C@@H](CCCNC(=N)N)C(=O)O)CN4c3ccccc3)c3ccccc23)C1: 570
- Cc1cc(C)nc(NCCC[C@@H](NC(=O)Cn2c3c(c4ccccc42)CCN(C(=O)CN2CN(c4ccccc4)C4(CCN(C(=O)[C@H](CCCNC(=N)N)NC(=O)[C@H](N)CCCNC(=N)N)CC4)C2=O)C3)C(N)=O)n1: 78.4
- N=C(N)NCCC[C@@H](N)C(=O)N[C@@H](CCCNC(=N)N)C(=O)N1CCC2(CC1)C(=O)N(CC(=O)N1CCc3c(n(CC(=O)N[C@@H](CCCNC(=N)N)C(=O)O)c4ccccc34)C1)CN2c1ccccc1: 1800
- N=C(N)NCCC[C@@H](N)C(=O)N[C@@H](CCCNC(=N)N)C(=O)N1CCC2(CC1)C(=O)N(CC(=O)N1CCc3c(n(CC(=O)N[C@@H](CCCNC(=N)N)C(=O)O)c4ccccc34)C1)CN2C1CCCCC1: 1400
- N=C(N)NCCC[C@@H](N)C(=O)N[C@@H](CCCNC(=N)N)C(=O)N1CCC2(CC1)C(=O)N(CC(=O)N1CCc3c(c4ccccc4n3CC(=O)N[C@@H](CCCNC(=N)N)C(=O)O)C1)CN2C1CCCCC1: 229
- N=C(N)NCCC[C@@H](N)C(=O)N[C@@H](CCCNC(=N)N)C(=O)N1CCC2(CC1)C(=O)N(CC(=O)N1CCc3c(n(CCC(=O)N[C@@H](CCCNC(=N)N)C(=O)O)c4ccccc34)C1)CN2c1ccccc1: 223
